Entries annotated with measured pKd
# Tested target: T1, GST-Egl512-819 (Drosophila melanogaster, UniProt Q9W1K4 512-819)
# T1 sequence: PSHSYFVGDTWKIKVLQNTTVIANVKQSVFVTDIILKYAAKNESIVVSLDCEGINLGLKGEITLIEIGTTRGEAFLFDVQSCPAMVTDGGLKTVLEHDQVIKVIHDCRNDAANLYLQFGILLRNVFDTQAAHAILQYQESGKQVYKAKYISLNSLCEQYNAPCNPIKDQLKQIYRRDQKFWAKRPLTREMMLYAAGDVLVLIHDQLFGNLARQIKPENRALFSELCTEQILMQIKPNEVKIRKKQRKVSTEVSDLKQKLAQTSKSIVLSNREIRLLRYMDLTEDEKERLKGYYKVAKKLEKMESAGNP
# Assay: fluorescence anisotropy; FA: 20 mM HEPES-NaOH pH 7.5, 100 mM NaCl, 10% glycerol, 20 C, 10 nM FAM-RNA; competition: 150 nM Egl512-819 + 10 nM FAM-K10 TLS, same buffer
# Particulars: protein: recombinant; tags: N-terminal GST (TEV site); label: 5'-FAM in direct assay; hairpin
In textbook form, pKd equals minus log to base ten of the concentration in mol/L.

{"Binder": "GAAUUAAACAUCAAAAAUUCUUAAUUAAAUUUUUAUGUUAGUUC (structured_RNA) [K10-as]", "Measured attribute": "pKd", "Numeric value": 6.99}

Determine from records and report pKd for CUUGAUUGUAUUUUUAAAUUAAUUCUUAAAAAUACAAUUAAG (structured_RNA) [K10-Delta b1b2]
6.76

Determine from records and report pKd for bcd_VbL (structured_RNA) RNA: GGGCCCAAAAUGAAAAAUGUUUCUCUUGGGCGUAAUCUCAUACAAUGAUUACCCUUAAAGAUCGAACAUUUAAACAAUAAUAUUUGGG
6.91

Values were extracted from paper doi:10.1101/2025.08.03.668247.
